Please provide measured Herbicidal effect Ec for the entries that follow.
Tested on: barnyard grass (Echinochloa crus-galli Beauv.), Ec
Assay: Test Example 3: herbicidal effect on upland weeds before emergence
Type: in vivo
Settings: dosage 5 kg/ha
Experimental: Herbicidal Effect on Upland Weeds Before Emergence […] Then, a liquid preparation of an agent comprising a prescribed concentration of a compound of the present invention (the compounds listed in Tables 1-14) as active ingredient was sprayed. Fourteen days after the treatment, the herbicidal effect was investigated, from which weed-killing rate was calculated in the same manner as in Test Example 1, and the herbicidal effect was judged.

# compound CCc1ccc(Cl)c(CC)c1NC(=O)c1cc2cc3c(cc2nc1C(=O)NC1CCCC1)OCO3 [compound 343] ; its Herbicidal effect Ec = 4 (Weed-killing rate is 90-99%.)

# compound CCc1ccc(Cl)c(CC)c1NC(=O)c1cc2cc(OC)c(OC)cc2nc1C(=O)NCC(C)C [compound 310] ; its Herbicidal effect Ec = 4 (Weed-killing rate is 90-99%.)

# compound CCNC(=O)c1nc2ccc(O)cc2cc1C(=O)Nc1c(CC)ccc(Cl)c1CC [compound 275] ; its Herbicidal effect Ec = 4 (Weed-killing rate is 90-99%.)

# compound CCc1ccc(Cl)c(CC)c1NC(=O)c1nc2ccccc2nc1C(=O)NCC(C)C [compound 1311] ; its Herbicidal effect Ec = 5 (Weed-killing rate is 100%.)

# compound CCCNC(=O)c1nc2ocnc2cc1C(=O)Nc1c(CC)ccc(Cl)c1CC [compound 1245] ; its Herbicidal effect Ec = 5 (Weed-killing rate is 100%.)

# compound CCCNC(=O)c1nc2sccc2cc1C(=O)Nc1c(CC)ccc(Cl)c1CC [compound 799] ; its Herbicidal effect Ec = 5 (Weed-killing rate is 100%.)

# compound CCCNC(=O)c1nc2ncn(C)c2cc1C(=O)Nc1c(CC)ccc(Cl)c1CC [compound 1209] ; its Herbicidal effect Ec = 5 (Weed-killing rate is 100%.)

# compound CCNC(=O)c1nc2c(cnn2C)cc1C(=O)Nc1c(CC)ccc(Cl)c1CC [compound 1087] ; its Herbicidal effect Ec = 5 (Weed-killing rate is 100%.)

# compound Cc1c(Cl)cccc1NC(=O)c1nc2ccccc2nc1C(=O)NC1CCCC1 [compound 1327] ; its Herbicidal effect Ec = 5 (Weed-killing rate is 100%.)

# compound CCc1ccc(Cl)c(CC)c1NC(=O)c1cc2cc3c(cc2nc1C(=O)NCC(C)C)OCO3 [compound 339] ; its Herbicidal effect Ec = 4 (Weed-killing rate is 90-99%.)

# compound CCNC(=O)c1nc2ccc(OC)cc2cc1C(=O)Nc1c(CC)ccc(Cl)c1CC [compound 289] ; its Herbicidal effect Ec = 5 (Weed-killing rate is 100%.)

# compound CCc1ccc(Cl)c(CC)c1NC(=O)c1cc2ccccc2nc1C(=O)NCC(C)(C)C [359-5] ; its Herbicidal effect Ec = 5 (Weed-killing rate is 100%.)

# compound CCc1ccc(Cl)c(CC)c1NC(=O)c1nc2ccccc2nc1C(=O)NC1CCCC1 [compound 1315] ; its Herbicidal effect Ec = 5 (Weed-killing rate is 100%.)

# compound CCc1ccc(Cl)c(CC)c1NC(=O)c1cc2c(nc1C(=O)NC1CCCC1)COCC2 [compound 447] ; its Herbicidal effect Ec = 5 (Weed-killing rate is 100%.)

# compound CCCNC(=O)c1nc2ccccc2nc1C(=O)Nc1c(CC)ccc(Cl)c1CC [compound 1306] ; its Herbicidal effect Ec = 5 (Weed-killing rate is 100%.)

# compound CCCNC(=O)c1nc2c(cc1C(=O)Nc1c(CC)ccc(Cl)c1CC)CCO2 [compound 919] ; its Herbicidal effect Ec = 5 (Weed-killing rate is 100%.)

# compound CCNC(=O)c1nc2sccc2cc1C(=O)Nc1c(CC)ccc(Cl)c1CC [compound 798] ; its Herbicidal effect Ec = 5 (Weed-killing rate is 100%.)
